assay: Validation screen for inhibitors of Lassa infection (AID 463096); conditions: Lassa virus infection, cell-based; series mostly up to 46.1 µM
Results filed as inconclusive are left out. Activity calls are given as the source filed them. Calls follow the shape of the full dose curve.
Classes used: active, inactive

1) CC1(C)CCC2=C(O1)c1ccccc1C(=O)C2=O ... active
2) CCCCC[C@H](CC(=O)NO)C(=O)N[C@H](C(=O)N1CCC[C@H]1CO)C(C)C ... inactive
3) O=C(O)Cc1c[nH]c2ccc(O)cc12 ... inactive
4) O=C(O)C1CCNCC1 ... inactive
5) Cn1c(=O)c2[nH]c(C3CCCC3)nc2n(C)c1=O ... inactive
6) CC1=C(C(=O)O)N2C(=O)[C@@H](NC(=O)C(N)C3=CCC=CC3)[C@H]2SC1 (stereo partly drawn) ... inactive
7) c1ccc(-c2ccccn2)nc1 ... inactive
8) CCCCCCCCCC(=O)NC(CN1CCOCC1)[C@H](O)c1ccccc1 (stereo partly drawn) ... inactive
9) CCNC(=O)[C@H]1O[C@@H](n2cnc3c(N)nc(NCCc4ccc(CCC(=O)O)cc4)nc32)[C@H](O)[C@H]1O ... inactive
10) CCCn1c(=O)[nH]c(=O)c2[nH]cnc21 ... inactive
11) CC(=O)O[C@H]1C(=O)[C@@]2(C)C([C@H](OC(=O)c3ccccc3)[C@]3(O)C[C@H](OC(=O)[C@H](O)[C@@H](NC(=O)c4ccccc4)c4ccccc4)C(C)=C1C3(C)C)[C@]1(OC(C)=O)CO[C@@H]1C[C@@H]2O (stereo partly drawn) ... inactive
12) CC(C)NCC(O)COc1cccc2ccccc12 (stereo not drawn) ... inactive
13) O=c1[nH]c2cc(Cl)c(Cl)cc2[nH]c1=O ... inactive
14) CCCCCCCCCCCCCCCCCC(=O)OC(CC(=O)O)C[N+](C)(C)C (stereo not drawn) ... inactive
15) NC(N)=N[C@@H](CCC(=O)O)C(=O)O ... inactive
16) C[C@@H](NCCc1ccc(O)cc1)[C@@H](O)c1ccc(O)cc1 ... inactive
17) O=C(O)c1cccnc1C(=O)O ... inactive
18) CN1C2CCC1CC(OC(=O)c1c[nH]c3ccccc13)C2 (stereo not drawn) ... inactive
19) NC(=O)CNCCC(c1ccccc1)c1ccccc1 ... inactive
20) NS(=O)(=O)c1cccc2c1c([N+](=O)[O-])cc1nc(O)c(O)nc12 ... inactive
21) Nc1cc(Cl)c(NC2=NCCN2)c(Cl)c1 ... inactive
22) CCCOC(=O)c1c(-c2ccccc2)nc(CC)c(C(=O)SCC)c1CCC ... inactive
23) NCCNS(=O)(=O)c1cccc2c(Cl)cccc12 ... inactive
